Where these numbers come from: PubChem BioAssay (EPA / NIEHS)

- Target system: Retinoic acid receptor alpha (Homo sapiens) (UniProt P10276)
- Sequence (P10276 whole entry, looked up): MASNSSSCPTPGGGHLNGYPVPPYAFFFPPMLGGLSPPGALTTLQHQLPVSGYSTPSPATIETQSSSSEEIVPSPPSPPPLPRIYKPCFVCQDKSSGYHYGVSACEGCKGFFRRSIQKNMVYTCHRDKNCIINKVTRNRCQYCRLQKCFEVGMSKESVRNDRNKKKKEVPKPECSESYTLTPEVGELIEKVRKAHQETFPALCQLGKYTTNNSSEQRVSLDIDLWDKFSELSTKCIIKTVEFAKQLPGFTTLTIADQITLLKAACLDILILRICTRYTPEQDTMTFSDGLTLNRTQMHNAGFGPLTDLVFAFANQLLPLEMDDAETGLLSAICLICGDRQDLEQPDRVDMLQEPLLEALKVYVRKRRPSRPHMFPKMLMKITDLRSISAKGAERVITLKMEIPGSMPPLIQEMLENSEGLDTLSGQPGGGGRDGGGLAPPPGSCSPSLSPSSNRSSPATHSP
- Experiment: ATG_DR5_RAR_CIS: Attagene CIS-FACTORIAL HepG2 Assay for human Retinoic Acid Receptor Alpha (RARE), DR5 submotif (AID 2282934)
- Measurement context: HepG2 Attagene cis-factorial RARE DR5 reporter, mRNA; actives raise or lower the signal
Calls of active or inactive are those of the source. How the source made its calls: active means hit-call score of the fitted dose curve at least 0.9, where 1 is the maximum; inactive means score below 0.9.
Your reply should match one of these outcome classes. YES = active, NO = inactive

Consider the worked cases shown below.
Could you kindly confirm the outcome this assay logged for `COc1nn(CSP(=S)(OC)OC)c(=O)s1` ? NO

Item: CCC(C)Nc1c([N+](=O)[O-])cc(C(C)(C)C)cc1[N+](=O)[O-] (stereo unspecified) YES

Would you mind doing `COC(=O)c1ccccc1S(=O)(=O)NC(=O)Nc1nc(C)nc(OC)n1` as well? NO

Also need `CCc1ccc(C(=O)NN(C(=O)c2cc(C)cc(C)c2)C(C)(C)C)cc1` , thanks. NO

Now the same for `CCS(=O)(=O)c1cccnc1S(=O)(=O)NC(=O)Nc1nc(OC)cc(OC)n1` NO

What about this compound? `N#Cc1c(Cl)c(Cl)c(Cl)c(C#N)c1Cl` YES

Next:
Check the results log: what was the call for `CC(C)N(C(=O)COc1nnc(C(F)(F)F)s1)c1ccc(F)cc1` ? NO

Also need CCC(C)(NC(=O)c1cc(Cl)c(C)c(Cl)c1)C(=O)CCl (stereo unspecified) , thanks. NO

What about CC1(C)C(C=C(Cl)Cl)C1C(=O)OC(C#N)c1ccc(F)c(Oc2ccccc2)c1 (stereo unspecified) ? YES

Also check `COC(=O)c1ccccc1CS(=O)(=O)NC(=O)Nc1nc(OC)cc(OC)n1` NO

And the next one, `OCCOc1ccccc1` ? NO
